Some binders, each annotated with its measured pKd.
- system.name: T1, 4EHP used for ITC, wild type (human, UniProt O60573 1-245)
- T1 sequence: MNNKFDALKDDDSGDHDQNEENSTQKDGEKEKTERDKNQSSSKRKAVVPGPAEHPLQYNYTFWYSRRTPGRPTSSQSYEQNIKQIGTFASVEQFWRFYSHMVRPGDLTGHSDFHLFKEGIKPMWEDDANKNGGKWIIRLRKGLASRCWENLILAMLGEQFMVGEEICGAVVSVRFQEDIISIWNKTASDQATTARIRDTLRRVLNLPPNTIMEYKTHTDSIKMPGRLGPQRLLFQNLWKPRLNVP
- test.summary: ITC
Please report pKd as the negative decimal logarithm of the molar concentration, giving only the number.

KYKLADYRYGREEMLALFLKDNKIPSDLLDKEFLPILQ [GYF2 C+L+NC peptide, ITC] ... 7.85

Continue with the binder presented below.
Output pKd of TRIIYDRKFLMECRNSPVTKTPPRDLPTIPGVTS [4E-BP1 peptide, ITC]
7.26
